# System tested: T1, HLA-DR15 molecule (DRB1*1501) (human)
# T1 construct: HLA class II heterodimer
# Protocol details: competitive ELISA, tracer A3 152-166
Threshold-based label: IC50 under 3 µM gives 1, IC50 not under 3 µM gives 0.

INSERT INTO measurements (binder, discrete_label) VALUES
  ('KEFEETAKKVRRAIE (synthetic 15-mer) [survivin peptide 122-136]', 1),
  ('AGFIHCPTENEPDLA (synthetic 15-mer) [survivin peptide 41-55]', 0),
  ('QPFLKDHRISTFKNW (synthetic 15-mer) [survivin peptide 11-25]', 1),
  ('KKQFEELTLGEFLKL (synthetic 15-mer) [survivin peptide 90-104]', 0),
  ('FCFKELEGWEPDDDP (synthetic 15-mer) [survivin peptide 59-73]', 0);

Please let me know if GEFLKLDRERAKNKI (synthetic 15-mer) [survivin peptide 99-113] shows IC50 below 3 µM. 1

These measurements were taken from patent US20090004214A1.
